Molecular target: UniProt:P09382
Sequence (P09382 whole entry): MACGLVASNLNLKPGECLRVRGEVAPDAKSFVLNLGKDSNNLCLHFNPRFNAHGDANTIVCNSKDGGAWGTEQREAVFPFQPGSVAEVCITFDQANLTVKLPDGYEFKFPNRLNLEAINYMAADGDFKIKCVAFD
Experiment: Competitive fluorescence polarization, galectin-1 (performed as described in ref 13)
Conditions: ratio of Kd values, Table 1 (monogalactosides)
Assign Galectin-3/galectin-1 to each entry below.
Answers are plain numbers.

Okay, here is my list. What is Galectin-3/galectin-1 for each of these?
1. Cc1ccc(S[C@@H]2O[C@H](CO)[C@H](O)[C@H](n3cc(-c4ncc[nH]4)nn3)[C@H]2O)cc1
2. O=C(O)CS[C@@H]1O[C@H](CO)[C@H](O)[C@H](n2cc(-c3cscn3)nn2)[C@H]1O
3. O=C(O)CS[C@@H]1O[C@H](CO)[C@H](O)[C@H](O)[C@H]1O [compound 17, reference compound]
4. Cc1ccc(S[C@@H]2O[C@H](CO)[C@H](O)[C@H](O)[C@H]2O)cc1 [compound 16, reference compound]

[out]
1. 4.7
2. 8.7
3. 4.2
4. 0.2

* * *

Molecular target: UniProt P09382
Test: Competitive fluorescence polarization, galectin-1 (performed as described in ref 13)
Conditions: ratio of Kd values, Table 1 (monogalactosides)
For each record, write down the corresponding Galectin-3/galectin-1.

As a guide, the following entries are already answered.
- COMPOUND: "O=C(O)CS[C@@H]1O[C@H](CO)[C@H](O)[C@H](n2cc(-c3ccsc3)nn2)[C@H]1O [compound 12]"
  EXPERIMENTAL SYSTEM: "UniProt P09382"
  Galectin-3/galectin-1: 3.4
- COMPOUND: "O=C(O)CS[C@@H]1O[C@H](CO)[C@H](O)[C@H](n2cc(-c3cncs3)nn2)[C@H]1O [compound 15]"
  EXPERIMENTAL SYSTEM: "UniProt P09382"
  Galectin-3/galectin-1: 2.4
- COMPOUND: "Cc1ccc(S[C@@H]2O[C@H](CO)[C@H](O)[C@H](n3cc(-c4ccoc4)nn3)[C@H]2O)cc1 [compound 5]"
  EXPERIMENTAL SYSTEM: "UniProt P09382"
  Galectin-3/galectin-1: 2.1
- COMPOUND: "Cc1ccc(S[C@@H]2O[C@H](CO)[C@H](O)[C@H](n3cc(C4CCCC4)nn3)[C@H]2O)cc1 [compound 4]"
  EXPERIMENTAL SYSTEM: "UniProt P09382"
  Galectin-3/galectin-1: 2.6

Consider the additional compound presented here.
[in] Recorded Galectin-3/galectin-1 of Cc1ccc(S[C@@H]2O[C@H](CO)[C@H](O)[C@H](n3cc(-c4c[nH]cn4)nn3)[C@H]2O)cc1 [compound 9] , please.
[out] 2.4
